These measurements were taken from patent US10724099B2.

READOUT_KIND: IC50

Item `COc1ccc(NC(=O)Nc2ccc3c(c2)C(=O)N([C@@H](C)CO)C[C@H](C)[C@H](CN(C)Cc2ccc4c(c2)OCO4)O3)cc1` was tested on full-length human aurora-B (Homo sapiens); the reported IC50 is 7 nM

---

# Test system: 102 barcoded cell lines
# MEASUREMENT_DESCRIPTION: PRISM, 102 barcoded cell lines in pools
# Type: cell-based
# APPLIED_CONDITIONS: 102 cell lines
# Text: PRISM was used to identify novel anticancer compounds, using a set of 102 barcoded cell lines including 90 non-small cell lung adenocarcinoma lines (and 2 duplicate lines with different barcode labels) and 10 remaining cell lines representing other tissues of origins. […]
pEC50: −log10 of the molar value.
READOUT_KIND: pEC50

pEC50 in this record for `COc1ccc(NC(=O)Nc2ccc3c(c2)C(=O)N([C@@H](C)CO)C[C@H](C)[C@H](CN(C)Cc2ccc4c(c2)OCO4)O3)cc1` : ~6.00
